Molecular target: sterol synthesis by rat liver homogenate (HMG-CoA reductase)
Test: CSX screen ("CSI" in Table 2): inhibition of sterol synthesis from 14C-acetate in rat liver homogenate
Conditions: 50% inhibition of sterol synthesis over a one-hour period
MEASUREMENT TYPE: pIC50
Numbers only, as −log10 of the molar value.

Below are 2 compounds. Give each one its pIC50.
1. CCc1nc(CC)c(/C=C/C(O)CC(O)CC(=O)O)c(-c2ccc(F)cc2)c1/C=C/C(O)CC(O)CC(=O)O (centres unmarked)
2. CC(C)c1nc(C(C)C)c(C=CC(O)CC(O)CC(=O)[O-])c(-c2ccc(F)cc2)c1C=CC(O)CC(O)CC(=O)[O-].[Na+].[Na+] (centres unmarked)

## Output
1. 7.49
2. 8.25
